measuredOn: KCNQ2/3 channels (Homo sapiens, UniProt O43525+O43526)
Construct: expressed in transfected cells; host or cells: CHO-K1 cells
experimentSummary: Fluorescence assay using a voltage-sensitive dye (fluorimetry)
Format: cell-based
testSettings: at 1 μM; 50 μM retigabine = 100%; CHO-K1 cells expressing KCNQ2/3; read-out: Fluorimetry % efficacy at 1 μM (50 μM retigabine = 100%)
measurementKind: Emax at 1 µM (%)

The following molecules have reported results that may help.
CSc1nc2cc(C(F)(F)F)ccc2c(C)c1C(=O)NCc1cccs1; 154
CCSc1nc2ccc(C(F)(F)F)cc2c(C)c1C(=O)NCc1ccc(F)cc1; 25
CCSc1nc2cc(C(F)(F)F)ccc2c(C)c1C(=O)NCCCc1ccccc1; 152
CCSc1nc2c(F)cccc2c(C)c1C(=O)NCc1ccc(F)cc1; 90
CCSc1nc2cc(C(F)(F)F)ccc2c(C)c1C(=O)NCc1nccs1; 169
O=C(NCc1cccs1)c1cc2ccccc2nc1SCCSc1ccc(F)cc1; 27

[I] CCSc1nc2cc(C(F)(F)F)ccc2c(C)c1C(=O)NCc1ccccc1
[II] CCSc1nc2cc(C(F)(F)F)ccc2c(C)c1C(=O)NCc1ccccc1Cl
[III] CCSc1nc2cc(N3CCOCC3)ccc2c(C)c1C(=O)NCc1cccc(F)c1
Please give the order of these molecules when sorted by Emax at 1 µM, largest value leading. Would you mind listing the labels in the order requested?
I, II, III
(I: 128%, II: 33%, III: 21%)

Origin of measurements: patent US20100234372A1
